The following binders are listed with their measured pKd values.
- study system: T1, extracellular domain of human CD73 protein, C-terminus polyhistidine-tagged (human, UniProt P21589 27-547)
- T1 construct: also the immunogen; also called CD73-ECD; human CD73-ECD
- T1 sequence: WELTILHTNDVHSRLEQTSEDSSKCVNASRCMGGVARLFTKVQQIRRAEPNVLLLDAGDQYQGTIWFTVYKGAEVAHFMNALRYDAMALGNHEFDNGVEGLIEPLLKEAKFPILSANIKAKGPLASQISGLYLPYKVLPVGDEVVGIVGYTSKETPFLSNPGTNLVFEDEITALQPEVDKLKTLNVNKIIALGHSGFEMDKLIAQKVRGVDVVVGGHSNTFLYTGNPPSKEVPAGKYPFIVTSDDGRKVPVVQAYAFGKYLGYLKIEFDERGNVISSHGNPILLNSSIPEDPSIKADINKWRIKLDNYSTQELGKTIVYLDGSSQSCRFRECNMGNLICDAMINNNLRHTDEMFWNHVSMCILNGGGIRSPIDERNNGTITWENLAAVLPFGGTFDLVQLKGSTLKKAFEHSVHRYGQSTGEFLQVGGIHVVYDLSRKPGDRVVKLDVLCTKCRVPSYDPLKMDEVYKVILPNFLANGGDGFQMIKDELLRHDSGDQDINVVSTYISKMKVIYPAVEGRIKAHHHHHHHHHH
- assay procedure: SPR as the filing names it (method of Example 2, ForteBio OCTET R2)
pKd: −log10 of the molar value.
measurement kind: pKd

humanized antibody 3D7-HM9-FC1 (Fc fusion) heavy: QRQLVESGGGLVQPGGSLRLSCAASGFLLDYYVIGWFRQAPGKEREGVSCISGSDRSTYYADSVKGRFTISRDNAKNTVYLQMSSLRAEDTAVYYCAADPSPVTVQAMCLPRFPVPYWGKGTLVTVSSEPKSSDKTHTCPPCPAPEFEGGPSVFLFPPKPKDTLMISRTPEVTCVVVDVSHEDPEVKFNWYVDGVEVHNAKTKPREEQYNSTYRVVSVLTVLHQDWLNGKEYKCKVSNKALPASIEKTISKAKGQPREPQVYTLPPSRDELTKNQVSLTCLVKGFYPSDIAVEWESNGQPENNYKTTPPVLDSDGSFFLYSKLTVDKSRWQQGNVFSCSVMHEALHNHYTQKSLSLSPGK
9.20
humanized antibody 3D7-HM8-FC1 (Fc fusion) heavy: QRQLVESGGGLVQPGGSLRLSCAASGFLLDYYVIGWFRQAPGKEREGVSCISGSDRSTYYADSVKGRFTISRDNSKNTVYLQMSSLRAEDTAVYYCAADPSPVTVQAMCLPRFPVPYWGQGTLVTVSSEPKSSDKTHTCPPCPAPEFEGGPSVFLFPPKPKDTLMISRTPEVTCVVVDVSHEDPEVKFNWYVDGVEVHNAKTKPREEQYNSTYRVVSVLTVLHQDWLNGKEYKCKVSNKALPASIEKTISKAKGQPREPQVYTLPPSRDELTKNQVSLTCLVKGFYPSDIAVEWESNGQPENNYKTTPPVLDSDGSFFLYSKLTVDKSRWQQGNVFSCSVMHEALHNHYTQKSLSLSPGK
8.93
chimeric nanobody 3-D7 (Fc fusion, Human-alpaca chimeric antibody (VHH on hIgG1 Fc); Only the VHH is tied to the tested molecule; 37-39 exist for 3-D7-FC1/FC2/FC3; also called original antibody 3-D7) VHH: QRQLVESGGGLVQPGGSLRLSCAASGFLLDYYVIGWFRQAPGKEREGVSCISGSDRSTYYADSVKGRFTISRDNAKNTVYLQMNSLKPEDTAVYFCAADPSPVTVQAMCLPRFPVPYWGQGTQVTVST
9.33
